Listing of entries alongside the reported IC50.
- System: KB
- procedureDetails: Cytotoxicity against human KB cells after 2 to 7 days by neutral red assay
- Type: functional, cell-based
- protocolConditions: Homo sapiens, KB; read-out: IC50
outcomeMeasure: IC50 (µg/mL)

- compoundSmiles: "COc1c2c3c(ccnc3c3ccccc13)C(=O)C(=O)N2C"
  qual: ">"
  measurement: 10
- compoundSmiles: "O=C1c2ccccc2-c2nccc3ccnc1c23"
  qual: "="
  measurement: 5.3
- compoundSmiles: "COc1cccc2c1C(=O)c1c(O)c3c(c(O)c1C2=O)C[C@@](O)(C(=O)CO)C[C@@H]3O[C@H]1C[C@H](N)[C@H](O)[C@H](C)O1"
  qual: "<"
  measurement: 1.1
- compoundSmiles: "O=c1[nH]cc(F)c(=O)[nH]1"
  qual: ">"
  measurement: 10
- compoundSmiles: "COc1c2c3c(ccnc3c3ccccc13)C(=O)C(=O)N2"
  qual: "="
  measurement: 6.4

* * *

- subjectOfTest: Intercellular adhesion molecule (ICAM-1), Integrin alpha-L/beta-2 (Homo sapiens) (UniProt P20701+P05362+P05107)
- procedureDetails: Inhibition of LFA1/ICAM1-mediated aggregation of TPA-stimulated human HL60 cells pretreated 10 mins before TPA challenge measured after 16 hrs of PMA addition by microscopy
- Assay type: cell-based
- protocolConditions: HL-60
MIC for assorted compounds
outcomeMeasure: MIC (µg/mL)

- compoundSmiles: "COc1c2c3c(ccnc3c3ccccc13)C(=O)C(=O)N2"
  qual: "="
  measurement: 4.2
- compoundSmiles: "COc1cnc2c3c(nccc13)C(=O)c1ccccc1-2"
  qual: "="
  measurement: 12.5
- compoundSmiles: "O=C1c2ccccc2-c2nccc3ccnc1c23"
  qual: "<"
  measurement: 0.15
- compoundSmiles: "C=C1[C@@H](C)[C@H]2[C@H](Cc3ccccc3)NC(=O)[C@]23OC(=O)/C=C/[C@H](O)CCC[C@@H](C)C/C=C/[C@H]3[C@@H]1O"
  qual: "="
  measurement: 0.39

* * *

Entries and their selectivity ratio values follow.
- procedureDetails: Selectivity index, ratio of IC50 of african green monkey (Cercopithecus aethiops) Vero cells to IC50 for chloroquine-resistant Plasmodium falciparum W2
- Assay type: toxicity, cell-based
- protocolConditions: read-out: Ratio IC50

- molecule: "C[C@@H]1CC[C@H]2[C@@H](C)C(=O)O[C@@H]3O[C@@]4(C)CC[C@@H]1[C@]32OO4 [ARTEMISININ]"
  selectivity ratio: "> 1080"
- molecule: "O=C1c2ccccc2-c2nccc3ccnc1c23 [SAMPANGINE]"
  selectivity ratio: "> 70"
- molecule: "COc1cnc2c3c(nccc13)C(=O)c1ccccc1-2"
  selectivity ratio: "> 50"
- molecule: "COc1ccc2c(OC)c3c4c(ccnc4c2c1)C(=O)C(=O)N3C [HADRANTHINE A]"
  selectivity ratio: "> 40"
- molecule: "COc1c2c3c(ccnc3c3ccccc13)C(=O)C(=O)N2C"
  selectivity ratio: "> 17"

* * *

Reported values of IC50 for individual entries
- System: HL-60
- procedureDetails: Cytotoxicity against human HL60 cells after 16 hrs by XTT/PMS assay
- protocolConditions: HL-60, 16 h
outcomeMeasure: IC50 (µg/mL)

- compoundSmiles: "COc1c2c3c(ccnc3c3ccccc13)C(=O)C(=O)N2"
  subjectOfTest: "HL-60"
  outcomeMeasure: "IC50"
  qual: ">"
  measurement: 12.5
- compoundSmiles: "COc1cnc2c3c(nccc13)C(=O)c1ccccc1-2"
  subjectOfTest: "HL-60"
  outcomeMeasure: "IC50"
  qual: "="
  measurement: 7.2
- compoundSmiles: "C=C1[C@@H](C)[C@H]2[C@H](Cc3ccccc3)NC(=O)[C@]23OC(=O)/C=C/[C@H](O)CCC[C@@H](C)C/C=C/[C@H]3[C@@H]1O"
  subjectOfTest: "HL-60"
  outcomeMeasure: "IC50"
  qual: ">"
  measurement: 30
- compoundSmiles: "O=C1c2ccccc2-c2nccc3ccnc1c23"
  subjectOfTest: "HL-60"
  outcomeMeasure: "IC50"
  qual: "="
  measurement: 2
